Quick reference for cytotoxicity at 10 µM among some compounds
test: Toxicity liver stage against HepG2, at 10uM; format: cell-based; design: test concentration 10 uM, cell line HepG2-A16-CD81EGFP; details: human, HepG2-A16-CD81EGFP cells; read-out: INHIBITION
Lab book: enter the figure in %, no units written.

Would you please look over these solved cases?
# compound, value.type, recorded.number
measured = [
    ("CC1Cc2ccccc2N1Cc1occc1C(=O)OCC(N)=O (stereo unspecified)", "cytotoxicity at 10 µM", -9.18),
    ("CCn1ncc(CN(C)C(=O)c2cc(C(F)(F)F)n(C)n2)c1C", "cytotoxicity at 10 µM", 3.87),
    ("O=C(O)c1ccccc1-c1cnc(Cn2c(=O)cc[nH]c2=O)s1", "cytotoxicity at 10 µM", 2.95),
]

Query string: Value lookup for cytotoxicity at 10 µM; key = `CN(CCc1ccccc1)c1cnn(CC(=O)N2CCOCC2)c(=O)c1`
Result string: 1.77

Query string: Any idea what its cytotoxicity at 10 µM is? The compound is `COCCN1C[C@@H]2[C@@H](OC)CCN(Cc3ccco3)[C@@H]2C1`
Result string: 2.37

Query string: Entry under review: CCc1nnc(CNC(=O)CCC2CCCN(C)C2)s1 (stereo unspecified) . Reported cytotoxicity at 10 µM?
Result string: -148

Query string: // cytotoxicity at 10 µM lookup, key: `O=C(NC[C@H]1OC[C@@H](NC2COC2)[C@@H]1O)c1cccs1`
Result string: 0.0331

Query string: Look up cytotoxicity at 10 µM: CN(C)Cc1ccnc(C2CN(Cc3c(F)cccc3F)CCO2)n1 (stereo unspecified)
Result string: -3.14

Query string: For the compound CCN(CC)CC1CN(Cc2c(C)noc2C)Cc2nccn2C1 (stereo unspecified) , what cytotoxicity at 10 µM is on record?
Result string: 2.37

Query string: Which cytotoxicity at 10 µM value belongs to Cc1cccnc1C(=O)N1CCCCC1c1[nH]ncc1S(C)(=O)=O (stereo unspecified) ?
Result string: 5.92

Query string: Endpoint output: cytotoxicity at 10 µM of `O=C(Nc1ccnc2ccnn12)c1ccc(NC2CC2)nc1` . Value?
Result string: 5.14

----------
test: Toxicity liver stage against HepG2, at 10uM; assay type: cell-based; set-up: test concentration 10 uM, cell line HepG2-A16-CD81EGFP; settings: human, HepG2-A16-CD81EGFP cells; read-out: INHIBITION
value.type: cytotoxicity at 10 µM (%)
Response body: numeric value in %, unit text excluded.

# molecule, recorded.number
records = [
    ("CN1CCOC(c2cncc(CCC(N)=O)n2)C1 (configuration not stated)", -2.86),
    ("CCn1ccnc1CN1CCC(CCC(=O)Nc2ccccc2Cl)CC1", -26.5),
    ("O=C(NCCc1csc(N2CCCC2)n1)N(C1CCCC1)C1CC1", 10.8),
    ("COc1ccc2cc(C3CN(C(=O)N(C)C)CCO3)ccc2c1 (configuration not stated)", 4.26),
    ("CC(Cc1cn(CCc2n[nH]c(=O)[nH]2)nn1)c1ccccc1 (configuration not stated)", -0.591),
    ("Cc1nc(CNC2CCN(Cc3ccccc3)C2)sc1C (configuration not stated)", 2.86),
    ("CN(Cc1cc(F)ccc1C#N)CC(C)(CO)CO", -10.4),
    ("Cc1cnccc1N1CCCN(C(=O)CCc2n[nH]c(C)c2C)CC1", -3.79),
    ("CC(C)NC(=O)N1CCN(C(=O)NC(C)C)CC2(CNC(=O)C2)C1", 3.3),
    ("CN(C)CC(=O)N1Cc2ncn(C)c2C(COCC2CCOCC2)C1 (configuration not stated)", -71),
]

Query string: Look up cytotoxicity at 10 µM: `Cc1ccc(CN2CC3(CCN(C(=O)c4cscn4)C3)C2)o1`
Result string: 5.28

Query string: Look at this molecule and give its reported cytotoxicity at 10 µM. COc1cccc(OCC2CCCN(C(C)=O)C2)c1 (configuration not stated)
Result string: 5.85

The measured values listed here are drawn from ChEMBL document CHEMBL4513216.
